Target: 15-lipoxygenase (Glycine max, UniProt P08170)
Construct: 15-lipoxygenase obtained from soybean; from tissue; host or cells: soybean
Sequence (P08170 whole entry): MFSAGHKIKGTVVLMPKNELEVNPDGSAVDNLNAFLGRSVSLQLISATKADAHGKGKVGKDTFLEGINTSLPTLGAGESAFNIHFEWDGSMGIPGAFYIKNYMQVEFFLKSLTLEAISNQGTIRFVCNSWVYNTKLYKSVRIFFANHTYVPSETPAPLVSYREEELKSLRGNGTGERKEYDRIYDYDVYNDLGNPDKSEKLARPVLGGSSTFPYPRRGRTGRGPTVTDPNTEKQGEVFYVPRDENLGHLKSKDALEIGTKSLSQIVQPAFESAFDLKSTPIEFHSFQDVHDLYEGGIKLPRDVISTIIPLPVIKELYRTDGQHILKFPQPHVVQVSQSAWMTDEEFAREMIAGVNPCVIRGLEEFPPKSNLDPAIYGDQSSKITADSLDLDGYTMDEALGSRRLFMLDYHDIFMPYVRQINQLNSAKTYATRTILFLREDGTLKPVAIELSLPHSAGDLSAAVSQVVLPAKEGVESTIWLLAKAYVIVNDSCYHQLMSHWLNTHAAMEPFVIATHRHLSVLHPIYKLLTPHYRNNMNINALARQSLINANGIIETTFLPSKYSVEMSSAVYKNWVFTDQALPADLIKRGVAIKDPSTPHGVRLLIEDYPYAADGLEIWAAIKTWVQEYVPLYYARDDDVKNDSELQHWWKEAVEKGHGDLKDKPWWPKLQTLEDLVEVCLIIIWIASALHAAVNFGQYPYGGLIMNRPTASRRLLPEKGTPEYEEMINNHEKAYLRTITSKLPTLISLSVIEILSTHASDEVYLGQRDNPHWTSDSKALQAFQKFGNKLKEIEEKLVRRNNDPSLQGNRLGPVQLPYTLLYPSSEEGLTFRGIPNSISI
Test: 15-lipoxygenase inhibition, enzyme obtained from soybean
Format: biochemical
Settings: 10 uM; read-out: Percent Inhibition, 15-lipoxygenase
Measurement name: inhibition at 10 µM (%)

O=c1ccc2ccccc2n1O [Example 1, 1-hydroxyquinol-2-(1H)-one] ... 59
COC(=O)c1cc2ccccc2n(O)c1=O [Example 2, 3-Carbomethoxy-1-hydroxyquinol-2(1H)-one] ... 5
COc1ccc2c(ccc(=O)n2O)c1 [Example 10, 6-Methoxy-1-hydroxyquinol-2-(1H)-one] ... 62
O=c1ccc2cc(-c3ccccc3)ccc2n1O [Example 12, 6-Phenyl-1-hydroxyquinol-2(1H)-one] ... 97

1 = O=c1ccc2cc(Cl)ccc2n1O [Example 8, 6-Chloro-1-hydroxyquinol-2(1H)-one]
2 = O=c1c2ccccc2c([N+](=O)[O-])cn1O [Example 30, 4-Nitro-2-hydroxyquinol-1(2H)-one]
IN: Higher inhibition at 10 µM: 1 or 2 ? Mark your answer with the label of the selected entry.
OUT: 1
(1: 95%, 2: 10%)
